- Test system: P. falciparum K1
- Measurement protocol: Malaria in vitro screening model (3H-hypoxanthine incorporation)
- Format: cell-based, Plasmodium falciparum
- Setup conditions: Plasmodium falciparum, K1
Give measured IC50 for each item. Keep answers brief.
Provide only the numeric value, understood in µg/mL.

Query: Give IC50 for the following compound: N#Cc1cccc(B(Oc2cccc3cccnc23)c2cc(F)ccc2F)c1
Result: 1.82

Query: Give IC50 for the following compound: Clc1ccccc1C=CBOc1cccc2cccnc12
Result: 1.5

Query: Give IC50 for the following compound: Fc1ccc(B(Oc2cccc3cccnc23)c2ccc(Cl)cc2)cc1
Result: 1.82

Query: Give IC50 for the following compound: CC1(C)COC(c2cccc(B(Oc3cccc4cccnc34)c3cccc(F)c3)c2)=N1
Result: 1.89

Query: Give IC50 for the following compound: Cc1cc(B(Oc2cccc3cccnc23)c2ccc(C#N)cc2)ccc1Cl
Result: 1.39

Query: Give IC50 for the following compound: N#Cc1ccc(B(Oc2cccc3cccnc23)c2cccc(Cl)c2)cc1
Result: 1.4

Query: Give IC50 for the following compound: Fc1cc(B(Oc2cccc3cccnc23)c2ccc(Cl)cc2)cc(C(F)(F)F)c1
Result: 2.07

Query: Give IC50 for the following compound: Fc1cc(F)cc(B(Oc2cccc3cccnc23)c2ccc(Cl)cc2)c1
Result: 1.87

Query: Give IC50 for the following compound: COc1ccc(B(Oc2cccc3cccnc23)c2ccc(Cl)cc2)cc1F
Result: 1.63

----------
- Test system: T. b. rhodesiense STIB 900
- Measurement protocol: African sleeping sickness in vitro screening model (Alamar Blue)
- Type: cell-based, Trypanosoma brucei rhodesiense
Property label: T. b. rhodesiense IC50 (µg/mL)
Provide only the numeric value, understood in µg/mL.

Query: Give T. b. rhodesiense IC50 for the following compound: N#Cc1ccc(B(Oc2cccc3cccnc23)c2ccc(C#N)cc2)cc1 [Compound 88]
Result: 0.41

Query: Give T. b. rhodesiense IC50 for the following compound: Cc1cccc(B(Oc2cccc3cccnc23)c2cccc(C)c2)c1 [Compound 86]
Result: 0.35

Query: Give T. b. rhodesiense IC50 for the following compound: N#Cc1cccc(B(Oc2cccc3cccnc23)c2cc(F)cc(C(F)(F)F)c2)c1 [Compound 121]
Result: 0.43

Query: Give T. b. rhodesiense IC50 for the following compound: Cc1ccc(B(OC(=O)c2ncccc2O)c2ccc(C)c(Cl)c2)cc1Cl [Compound 69]
Result: 16.5

Query: Give T. b. rhodesiense IC50 for the following compound: CN(C)Cc1ccc(B(Oc2cccc3cccnc23)c2cccc(C#N)c2)cc1.O=C(O)/C=C/C(=O)O [Compound 112]
Result: 0.44

Query: Give T. b. rhodesiense IC50 for the following compound: Clc1cccc(B(Oc2cccc3cccnc23)c2cccnc2)c1 [Compound 99]
Result: 0.345

Query: Give T. b. rhodesiense IC50 for the following compound: Cc1cc(Cl)ccc1B(Oc1cccc2cccnc12)c1ccc(Cl)cc1C [Compound 109]
Result: 0.405

Query: Give T. b. rhodesiense IC50 for the following compound: Fc1ccc(B(Oc2cccc3cccnc23)c2ccc(Cl)cc2)cc1F [Compound 114]
Result: 0.41

Query: Give T. b. rhodesiense IC50 for the following compound: CN(C)Cc1ccc(B(Oc2cccc3cccnc23)c2ccc(Cl)cc2)cc1.Cl [Compound 105]
Result: 0.41

Query: Give T. b. rhodesiense IC50 for the following compound: N#Cc1cccc(B(Oc2cccc3cccnc23)c2ccc(F)cc2F)c1 [Compound 96]
Result: 0.34
